# MIC per entry
test system: Escherichia coli; test: Antimicrobial activity against acrAB-deficient Escherichia coli TG1 harboring plasmid pEX19Gm by agar dilution method; format: functional

*Q* Suppose we examine the compound CCC[C@@H]1C[C@@H](C(=O)N[C@@H]([C@H]2O[C@H](SC)[C@H](O)[C@@H](O)[C@H]2O)[C@@H](C)O)N(C)C1 [LINCOMYCIN] ; what MIC value has been reported?
*A* 64 µg/mL

Next:
*Q* Suppose we examine the compound CO/N=C(\C(=O)N[C@@H]1C(=O)N2C(C(=O)O)=C(COC(N)=O)CS[C@H]12)c1ccco1 [CEFUROXIME] ; what MIC value has been reported?
*A* 0.5 µg/mL

*Q* Suppose we examine the compound CC[n+]1c(-c2ccccc2)c2cc(N)ccc2c2ccc(N)cc21.[Br-] [HOMIDIUM BROMIDE] ; what MIC value has been reported?
*A* 2 µg/mL

*Q* Suppose we examine the compound CC[C@H]1OC(=O)[C@H](C)[C@@H](O[C@H]2C[C@@](C)(OC)[C@@H](O)[C@H](C)O2)[C@H](C)[C@@H](O[C@@H]2O[C@H](C)C[C@H](N(C)C)[C@H]2O)[C@](C)(O)C[C@@H](C)C(=O)[C@H](C)[C@@H](O)[C@]1(C)O [ERYTHROMYCIN] ; what MIC value has been reported?
*A* 1 µg/mL

====

# MIC per entry
assay: Antimicrobial activity against Aeromonas hydrophila subsp. hydrophila ATCC 7966 harboring plasmid pEX19Gm by agar dilution method; format: functional
Where a SMILES comes first, the peptide text is derived from it. Bridges are numbered along the chain shown (N, C = ends). [ ]: non-standard residue; d: D form. The star is where a group is joined. NMePhe(4-NMe2) = CN[C@@H](Cc1ccc(N(C)C)cc1)C(=O)O; Pip(4-oxo) = O=C1CCN[C@H](C(=O)O)C1; Picolinoyl(3-OH) = O=C(c1ncccc1O)*; Phg = N[C@H](C(=O)O)c1ccccc1; dAbu = CC[C@@H](N)C(=O)O
Numeric answer only, unit µg/mL assumed.

*Q* Suppose we examine the compound CC[C@H]1NC(=O)[C@@H](NC(=O)c2ncccc2O)[C@@H](C)OC(=O)[C@H](c2ccccc2)NC(=O)[C@@H]2CC(=O)CCN2C(=O)[C@H](Cc2ccc(N(C)C)cc2)N(C)C(=O)[C@@H]2CCCN2C1=O [PRISTINAMYCIN 1A] ({Picolinoyl(3-OH)}-T[dAbu]P[NMePhe(4-NMe2)][Pip(4-oxo)][Phg]; ester 1-C) ; what MIC value has been reported?
*A* 32

Next:
*Q* Suppose we examine the compound CO/N=C(\C(=O)N[C@@H]1C(=O)N2C(C(=O)O)=C(COC(N)=O)CS[C@H]12)c1ccco1 [CEFUROXIME] ; what MIC value has been reported?
*A* 1

*Q* Suppose we examine the compound CN(C)c1ccc2cc3ccc(N(C)C)cc3nc2c1 [ACRIDINE ORANGE] ; what MIC value has been reported?
*A* 512

*Q* Suppose we examine the compound CC(=O)O[C@H]1C[C@@]2(C)[C@@H](C[C@@H](O)[C@H]3[C@@]4(C)CC[C@@H](O)[C@@H](C)[C@@H]4CC[C@@]32C)/C1=C(\CCC=C(C)C)C(=O)O [FUSIDIC ACID] ; what MIC value has been reported?
*A* 128

*Q* Suppose we examine the compound CCN1CCN(C(=O)N[C@@H](C(=O)N[C@@H]2C(=O)N3C(C(=O)O)=C(CSc4nnnn4C)CS[C@H]23)c2ccc(O)cc2)C(=O)C1=O [CEFOPERAZONE] ; what MIC value has been reported?
*A* 0.25
